assay-procedure: Oral bioavailability in rat at 1 mg/kg, po
Assay type: ADME, organism-based
measurement-setup: in vivo
readout-type: bioavailability (%)
Response body: numeric value in %, unit text excluded.

INPUT: Which measured bioavailability value corresponds to O=C1NCCc2c1[nH]c1ccc(OCc3ccccc3)cc21 ?
OUTPUT: 0

* * *

subject-of-test: Metabotropic glutamate receptor 1 (Rattus norvegicus)
assay-procedure: Antagonist activity at rat mGluR1a expressed in CHO cells assessed as inhibition of intracellular calcium ion mobilization by FLIPR assay
readout-type: IC50 (µM)
Response body: numeric value in µM, unit text excluded.

A selection of reference data follows.
O=C(NC1CC2CCC1C2)c1ccc2[nH]c3c(c2c1)CCNC3=O (configuration not stated): 0.226
O=C1NCCc2c1[nH]c1ccc(NC(=O)C34CC5CC(CC(C5)C3)C4)cc21: 0.071
O=C1NCCc2c1[nH]c1ccc(OCc3ccccc3)cc21: 0.104
O=C1NCCc2c1[nH]c1cc(OCc3ccccc3)ccc21: 2.85
CC(Oc1ccc2[nH]c3c(c2c1)CCNC3=O)C(C)(C)C (configuration not stated): 0.239
O=C1NCCC2c3cc(OCc4ccccc4)ccc3NC12 (configuration not stated): 1.67
O=C1NCc2c1[nH]c1ccc(OCc3ccccc3)cc21: 0.683

# context switch: different molecule, same IC50
INPUT: Which measured IC50 value corresponds to O=C(NCC12CC3CC(CC(C3)C1)C2)c1ccc2[nH]c3c(c2c1)CCNC3=O ?
OUTPUT: 0.312

* * *

assay-procedure: Oral bioavailability in rat
Type: ADME, organism-based
measurement-setup: in vivo
Measured bioavailability values are reported for all entries that follow.
Response body: numeric value in %, unit text excluded.

INPUT: Which measured bioavailability value corresponds to O=C(NC12CC3CC(CC(C3)C1)C2)c1ccc2[nH]c3c(c2c1)CCNC3=O ?
OUTPUT: 12

INPUT: Which measured bioavailability value corresponds to Cc1cc2[nH]c3c(c2cc1OCc1ccccc1)CCNC3=O ?
OUTPUT: 36

* * *

subject-of-test: Metabotropic glutamate receptor 1 (Rattus norvegicus)
assay-procedure: Antagonist activity at rat mGluR1a expressed in CHO cells assessed as inhibition of intracellular calcium ion mobilization by FLIPR assay
Measured IC50 values are reported for all entries that follow.
Response body: numeric value in nM, unit text excluded.

O=C(NC12CC3CC(CC(C3)C1)C2)c1ccc2[nH]c3c(c2c1)CCNC3=O: 71

INPUT: Which measured IC50 value corresponds to O=C1NN=CC2c3cc(OCc4ccccc4)ccc3NC12 (stereo not drawn) ?
OUTPUT: 1020

* * *

assay-procedure: Oral bioavailability in rat at 5 mg/kg, po
Assay type: ADME, organism-based
measurement-setup: in vivo
readout-type: bioavailability

INPUT: Which measured bioavailability value corresponds to O=C1NCCc2c1[nH]c1ccc(OCc3ccccc3)cc21 ?
OUTPUT: 9%

* * *

subject-of-test: Metabotropic glutamate receptor 1 (Rattus norvegicus, UniProt P23385)
Sequence (P23385 whole entry): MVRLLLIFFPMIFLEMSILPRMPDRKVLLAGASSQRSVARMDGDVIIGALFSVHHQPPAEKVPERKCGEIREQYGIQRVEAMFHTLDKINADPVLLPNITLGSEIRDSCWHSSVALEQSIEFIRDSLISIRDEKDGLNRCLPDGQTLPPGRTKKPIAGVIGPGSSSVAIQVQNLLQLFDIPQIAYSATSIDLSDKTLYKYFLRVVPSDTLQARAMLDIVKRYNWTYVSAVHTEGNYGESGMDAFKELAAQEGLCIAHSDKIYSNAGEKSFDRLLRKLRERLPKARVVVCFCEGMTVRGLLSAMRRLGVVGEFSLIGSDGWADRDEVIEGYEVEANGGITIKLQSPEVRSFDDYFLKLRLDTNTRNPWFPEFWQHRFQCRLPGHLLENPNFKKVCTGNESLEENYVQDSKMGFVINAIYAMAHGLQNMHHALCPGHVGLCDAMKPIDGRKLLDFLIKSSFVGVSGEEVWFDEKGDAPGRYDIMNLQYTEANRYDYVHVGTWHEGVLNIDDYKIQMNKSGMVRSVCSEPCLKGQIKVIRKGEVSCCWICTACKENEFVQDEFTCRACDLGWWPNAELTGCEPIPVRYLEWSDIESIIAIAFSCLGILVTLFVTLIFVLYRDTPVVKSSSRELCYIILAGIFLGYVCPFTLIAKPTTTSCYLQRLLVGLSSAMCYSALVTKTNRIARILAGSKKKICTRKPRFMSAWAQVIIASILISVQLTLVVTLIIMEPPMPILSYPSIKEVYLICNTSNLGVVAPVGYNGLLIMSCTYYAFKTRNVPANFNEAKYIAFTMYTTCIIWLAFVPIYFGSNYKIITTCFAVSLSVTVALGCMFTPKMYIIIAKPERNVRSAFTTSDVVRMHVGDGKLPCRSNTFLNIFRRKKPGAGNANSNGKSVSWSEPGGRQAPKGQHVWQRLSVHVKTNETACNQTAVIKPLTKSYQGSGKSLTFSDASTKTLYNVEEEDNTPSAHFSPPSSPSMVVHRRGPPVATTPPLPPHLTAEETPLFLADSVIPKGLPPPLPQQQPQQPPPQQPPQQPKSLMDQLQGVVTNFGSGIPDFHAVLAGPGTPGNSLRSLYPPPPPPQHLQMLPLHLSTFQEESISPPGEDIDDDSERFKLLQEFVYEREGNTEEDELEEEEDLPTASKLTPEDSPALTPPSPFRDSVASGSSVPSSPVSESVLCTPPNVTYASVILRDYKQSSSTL
assay-procedure: Antagonist activity at rat mGluR1a expressed in CHO cells assessed as inhibition of intracellular calcium ion mobilization by FLIPR assay
readout-type: IC50 (µM)
Response body: numeric value in µM, unit text excluded.

O=C(Nc1ccccc1)c1ccc2[nH]c3c(c2c1)CCNC3=O: 1.04
CC(N(C)C(=O)c1ccc2[nH]c3c(c2c1)CCNC3=O)C(C)(C)C (stereo unspecified): 0.12
O=C1NCCc2c1[nH]c1ccc(Oc3ccccc3)cc21: 4.07
CC(Oc1ccc2[nH]c3c(c2c1)CCNC3=O)c1ccccc1 (stereo unspecified): 0.38
Cc1cc2[nH]c3c(c2cc1OCc1ccccc1)CCNC3=O: 0.167

INPUT: Which measured IC50 value corresponds to CCCOC(=O)c1[nH]c(C)c(C(=O)O[C@@H](C)C(C)(C)C)c1C ?
OUTPUT: 0.016

INPUT: Which measured IC50 value corresponds to O=C(Nc1ccc2[nH]c3c(c2c1)CCNC3=O)NC12CC3CC(CC(C3)C1)C2 ?
OUTPUT: 4.66

INPUT: Which measured IC50 value corresponds to O=C1NCCc2c1[nH]c1cccc(OCc3ccccc3)c21 ?
OUTPUT: 3.98

INPUT: Which measured IC50 value corresponds to O=C(NC1C2CC3CC(C2)CC1C3)c1ccc2[nH]c3c(c2c1)CCNC3=O (stereo unspecified) ?
OUTPUT: 0.093

INPUT: Which measured IC50 value corresponds to O=C1NCCc2c1[nH]c1ccc(OCC3CCCCC3)cc21 ?
OUTPUT: 5.56

* * *

Measured Cmax values are reported for all entries that follow.
assay-procedure: Cmax in rat
Format: ADME, organism-based
measurement-setup: in vivo
Response body: numeric value in ng/mL, unit text excluded.

A selection of reference data follows.
O=C(NC12CC3CC(CC(C3)C1)C2)c1ccc2[nH]c3c(c2c1)CCNC3=O: 37
Cc1cc2[nH]c3c(c2cc1OCc1ccccc1)CCNC3=O: 264

# context switch: different compound, same Cmax
INPUT: Which measured Cmax value corresponds to O=C1NCCc2c1[nH]c1ccc(OCc3ccccc3)cc21 ?
OUTPUT: 145
